# MEASUREMENT TARGET: T1, C-terminally 6xHis tagged mouse PTPRS (mPTPRS) ECD (Mus musculus, UniProt B0V2N1)
# T1 construct: also called mPTPRS ectodomain; PTPRS ectodomain; source: HEK293T, transiently transfected, supernatant; purified (Ni-NTA, HiTrap heparin); not shown: His6, C-terminal, kept
# T1 sequence (B0V2N1 30-1257): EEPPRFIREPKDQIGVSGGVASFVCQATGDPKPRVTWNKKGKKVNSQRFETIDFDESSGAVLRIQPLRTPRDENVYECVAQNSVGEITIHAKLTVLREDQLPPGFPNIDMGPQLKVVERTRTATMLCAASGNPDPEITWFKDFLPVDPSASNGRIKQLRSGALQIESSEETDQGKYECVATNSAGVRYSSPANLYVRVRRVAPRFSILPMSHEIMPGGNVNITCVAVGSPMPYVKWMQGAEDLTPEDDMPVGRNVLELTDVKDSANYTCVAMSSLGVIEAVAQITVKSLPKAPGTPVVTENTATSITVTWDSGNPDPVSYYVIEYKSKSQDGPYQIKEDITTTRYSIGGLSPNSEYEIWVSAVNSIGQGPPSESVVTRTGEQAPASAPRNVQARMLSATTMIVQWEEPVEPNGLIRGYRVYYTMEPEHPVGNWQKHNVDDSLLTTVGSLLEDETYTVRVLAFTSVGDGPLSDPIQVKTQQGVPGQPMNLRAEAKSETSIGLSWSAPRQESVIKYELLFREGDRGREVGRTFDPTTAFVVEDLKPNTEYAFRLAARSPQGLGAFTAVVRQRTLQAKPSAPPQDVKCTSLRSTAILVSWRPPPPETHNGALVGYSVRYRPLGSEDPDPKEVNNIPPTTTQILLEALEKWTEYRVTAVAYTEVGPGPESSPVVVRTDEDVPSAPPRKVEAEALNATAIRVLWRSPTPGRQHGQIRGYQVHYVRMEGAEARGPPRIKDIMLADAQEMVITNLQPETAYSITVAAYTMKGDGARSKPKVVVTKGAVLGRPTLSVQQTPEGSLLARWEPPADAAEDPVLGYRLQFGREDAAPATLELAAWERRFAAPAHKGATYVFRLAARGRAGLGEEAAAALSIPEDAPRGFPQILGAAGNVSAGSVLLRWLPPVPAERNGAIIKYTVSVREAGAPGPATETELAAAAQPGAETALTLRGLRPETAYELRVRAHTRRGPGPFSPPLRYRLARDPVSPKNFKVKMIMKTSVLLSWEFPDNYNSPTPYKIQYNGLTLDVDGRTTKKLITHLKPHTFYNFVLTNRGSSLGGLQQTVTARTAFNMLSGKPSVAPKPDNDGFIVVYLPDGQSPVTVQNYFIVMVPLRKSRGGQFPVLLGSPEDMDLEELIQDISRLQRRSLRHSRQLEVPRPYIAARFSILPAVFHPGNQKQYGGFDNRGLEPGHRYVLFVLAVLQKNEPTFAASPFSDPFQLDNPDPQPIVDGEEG
# ASSAY: BLI; His-tagged ligand (mPTPRS ECD or hPTPRS Fn9) immobilised on anti-6xHis probes at 100 to 200 nM; antibodies or scFv-Fc fusions as analytes; Gator K buffer (0.02% BSA, 0.002% Tween-20 in PBS, pH 7.4), 37 °C; biphasic (2:1) association model
# APPLIED CONDITIONS: both partners purified
QUANTITY: pKd
Value format note: pKd is -log10 of concentration (mol/L); just state the number.

[Q] Tell me the measured pKd of 22H8 (mouse monoclonal antibody, IgG1/κ) (antibody, V domains shown, VH of 22H8; constant region of the mouse IgG1 heavy chain; VL of 22H8; constant region of the mouse κ light chain; IgG1/κ; source: production contracted to Viva Biotech) VH: QVQLQQSGAELARPGASVKLSCKASGYTFTSYWMQWVKQRPGQGLEWIGAIYPGDGDTRYTQKFKGKATLTADKSSSTAYMQLSSLASEDSAVYYCARRIYYGYYYAMDYWGQGTSVTVSS VL: DIVLTQSPASLAVSLGQRATISCKASQSVDYDGDSYMNWYQQKPGQPPKLLIYAASNLESGIPARFSGSGSGTDFTLNIHPVEEEDAATYYCQQSNEDPLTFGAGTKLELK , please.
[A] 7.88

// data source = paper PMC12363564
